Assay: MTT cytotoxicity assay, HTC-116
Assay type: cell-based, human
Details: human, HTC-116 cells (human colorectal carcinoma), HTC-116, 25 ug/ml, 48 h, read-out: % Cell viability
Property: viability at 48 h, 25 µg/ml; scope: individual molecules
Numeric answer only, unit % assumed.

Molecule	viability at 48 h, 25 µg/ml, %
COc1cccc2c1C(=O)c1c(O)c3c(c(O)c1C2=O)C[C@@](O)(C(=O)CO)C[C@@H]3O[C@H]1C[C@H](N)[C@H](O)[C@H](C)O1 [Doxorubicin, reference compound]	46.2

Exercise: Give its viability at 48 h, 25 µg/ml value. Item: COc1c(O)cc2oc(-c3ccccc3)c(OC)c(=O)c2c1O [5,7-Dihydroxy-3,6-dimethoxyflavone]
Solution: 50.1

Where these numbers come from: paper PMC12446468
